// data source = patent US20200024330A1

Reported IC50 neutralization is given for each of the following binders.
target: HIV-1 APV6 envelope glycoprotein (Env) (HIV-1); experiment: cell-based or functional assay
endpoint_label: IC50 neutralization

>  <binder>
PGT-135 (antibody, V domains shown) VH: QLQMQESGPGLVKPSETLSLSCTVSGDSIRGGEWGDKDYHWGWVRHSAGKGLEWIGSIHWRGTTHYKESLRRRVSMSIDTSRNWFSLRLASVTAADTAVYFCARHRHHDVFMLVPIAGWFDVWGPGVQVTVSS VL: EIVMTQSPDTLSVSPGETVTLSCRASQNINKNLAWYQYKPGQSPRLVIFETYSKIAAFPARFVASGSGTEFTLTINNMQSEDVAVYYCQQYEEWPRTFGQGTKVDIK

>  <readout_value>
> 10 µg/mL

$$$$
>  <binder>
PGT-136 (antibody, V domains shown) VH: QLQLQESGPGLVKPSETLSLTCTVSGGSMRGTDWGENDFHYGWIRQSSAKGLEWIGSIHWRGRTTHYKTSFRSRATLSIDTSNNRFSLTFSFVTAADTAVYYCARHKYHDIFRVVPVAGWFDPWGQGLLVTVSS VL: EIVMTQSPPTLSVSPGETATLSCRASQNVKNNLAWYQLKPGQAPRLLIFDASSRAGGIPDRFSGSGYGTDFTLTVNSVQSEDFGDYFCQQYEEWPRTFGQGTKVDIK

>  <readout_value>
> 10 µg/mL

$$$$
>  <binder>
PGT-123 (antibody, V domains shown) VH: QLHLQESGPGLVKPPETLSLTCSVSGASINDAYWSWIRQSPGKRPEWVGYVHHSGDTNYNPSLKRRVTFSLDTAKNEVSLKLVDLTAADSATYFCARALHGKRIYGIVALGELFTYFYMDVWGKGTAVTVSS VL: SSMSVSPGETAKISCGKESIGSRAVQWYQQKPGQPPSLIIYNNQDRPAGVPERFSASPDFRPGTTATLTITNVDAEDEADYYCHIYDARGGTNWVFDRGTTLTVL

>  <readout_value>
0.0328 µg/mL

$$$$
